Cited source for all entries: patent US20160032001A1

experimentalSystem: T1, human RANKL protein (human, UniProt O14788 140-317, limits assumed)
T1 sequence (looked up): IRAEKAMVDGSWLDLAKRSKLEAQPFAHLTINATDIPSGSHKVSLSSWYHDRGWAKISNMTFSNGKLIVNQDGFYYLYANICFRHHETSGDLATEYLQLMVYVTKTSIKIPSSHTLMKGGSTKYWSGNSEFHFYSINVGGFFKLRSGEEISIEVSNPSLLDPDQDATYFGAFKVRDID
procedureDetails: surface plasmon resonance
quantityMeasured: pKd
// field semantics: pKd = negative decimal log of concentration (mol/L)

// pKd lookup, binder = clone 23 rabbit anti-RANKL antibody (antibody, V domains shown, also called RabMAb 23; parent 23 rabbit antibody) VH: QEQLKESGGGLVTPGGTLTLTCTASGFSLSSDGMSWVRQAPGKGLEWIGYIYSGSSPYYANWAKGRFTISKTSSTTVDLKMTSLTTEDTATYFCARHGSGGGWYLDIWGPGTLVTVSS VL: AYDMIQTPASVEVAVGGTVTINCQASQTIGTNLAWYQQKPGQRPKLLIYAASTLPSGVSSRFKGSGSGTQFTLTISDVECSDAATYYCQQAYSVGNVDNAFGGGTEVVVK , result: 9.79

// pKd lookup, binder = clone 327 rabbit anti-RANKL antibody (antibody, V domains shown) VH: QSLEESGGRLVTPGTPLTLTCTVSGFSLSKYEINWVRQAPGKGLEWIGYIDVGSGTWYASWAKGRFTISKTSTTVALRITSPTTEDTATYFCSRQYNPMDLWGPGTLVTVSS VL: DMTQTPASVEAAVGGTVTIKCQASQNIGSNLAWYQQKPGQRPKLLIYSASTLASGVPSRFKGSGSGTQFTLTISGVQCDDAATYYCQQGYSVGNVNNAFGGGTEVVVK , result: 8.67

// pKd lookup, binder = clone 408 rabbit anti-RANKL antibody (antibody, V domains shown) VH: QSVEESGGRLVTPGTPLTLTCTVSGFSLSTDVVSWVRQAPGKGLEWIGYTWNGGATFYASWAKGRFTFSKTSTTVDLKITSPTTEDTATYFCARGYNGMDPWGPGTLVTVSS VL: DMTQTPASVEAAVGGAVTIKCQASQNIGSNLAWYHQKPGQPPKLLISKASTLASGVPSRFKGSGSGTEFTLAISDLECADAATYYCQQGYTTKNVVNPFGGGTEVVVK , result: 9.36

// pKd lookup, binder = clone 91 rabbit anti-RANKL antibody (antibody, V domains shown) VH: QSLEESGGRLVKPDETLTLTCTVSGSSLYNYEINWVRQAPGKGLEWIGYIDVGSGTWYASWAKGRFTISKTSTTVDLKITSPTTEDTATYFCTRKYNPMDLWGPGTLVTVSS VL: DMTQTPASVEVAVGGTVTIKCQASQNIGSNLAWYQQKPGQPPKLLIYSTSTVASGVPSRFKGSGFGTQFTLTISGVQCDDAATYYCQQGYSAGNVNNPFGGGTEVVVK , result: 9.23
